Reference source for all entries: paper PMC6973020

# Test system: MCF‐7 human breast adenocarcinoma
# Assay remarks: MTT cell viability assay, MCF‐7
# Type: cell-based
# Measurement conditions: 72 h
Observable: IC50

Q) # IC50 lookup, item N.N.[Cl][Pt][Cl] [Cisplatin, reference compound]
A) 3000 nM

###

# System: MCF‐7 human breast adenocarcinoma
# Assay remarks: Crystal violet (CV) cell viability assay, MCF‐7
# Type: cell-based
# Measurement conditions: 72 h
Observable: IC50 (µM)
Just the number in µM, nothing appended.

Q) # IC50 lookup, item N.N.[Cl][Pt][Cl] [Cisplatin, reference compound]
A) 3.5
